testedOn: M3 receptor (Homo sapiens, UniProt P20309)
Construct: HT-29 cell model endogenously highly expressing the M3 receptor; endogenous in cells
Sequence (P20309 whole entry): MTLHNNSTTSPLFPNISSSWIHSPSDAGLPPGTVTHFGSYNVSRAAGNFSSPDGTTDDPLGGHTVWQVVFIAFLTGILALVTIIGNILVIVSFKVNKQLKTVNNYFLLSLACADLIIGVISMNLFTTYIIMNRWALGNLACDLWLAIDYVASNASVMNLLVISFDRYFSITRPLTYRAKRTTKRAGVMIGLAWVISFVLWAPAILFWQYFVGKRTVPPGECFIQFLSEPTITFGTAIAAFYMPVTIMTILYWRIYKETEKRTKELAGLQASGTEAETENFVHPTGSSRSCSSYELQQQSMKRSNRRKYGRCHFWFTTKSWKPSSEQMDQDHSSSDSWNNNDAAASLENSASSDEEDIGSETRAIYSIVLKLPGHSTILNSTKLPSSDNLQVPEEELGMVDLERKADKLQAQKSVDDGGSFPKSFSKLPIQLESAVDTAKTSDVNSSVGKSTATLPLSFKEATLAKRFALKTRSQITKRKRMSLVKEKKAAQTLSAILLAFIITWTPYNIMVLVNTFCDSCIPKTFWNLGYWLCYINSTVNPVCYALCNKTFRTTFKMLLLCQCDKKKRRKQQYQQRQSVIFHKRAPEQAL
method: DMR assay, antagonism of acetylcholine in HT-29 cells endogenously expressing the M3 receptor
assayContext: HT-29 cells, DMR, acetylcholine 16 μM, 1 h pretreatment, time point 30 min
Excerpt: The present invention relates to the antagonistic activity of the compound against the muscarinic receptor, which is primarily assessed by a cell-level dynamic mass redistribution (DMR) assay method. […]
quantityKind: pIC50
One number for each entry, as −log10 of the molar value.

In one line, give reported pIC50 of the entry Cc1ccc(OC(=O)c2ccccc2)c(C(CC2CCCCN2C)c2ccccc2)c1 (stereo not shown) . 5.53

Answer with reported pIC50 of Cc1ccc(O)c(C(CC2CCCCN2C)c2ccc(Cl)cc2)c1 (stereo not shown) 6.83

Go through the items and report each one's pIC50.
1. C[N+]1(C)CCCCC1CC(c1ccccc1)c1ccccc1O (stereo not shown) [I-2a-Br]
2. CCc1ccc(O)c(C(CC2CCC[N+]2(C)C)c2ccccc2)c1 (stereo not shown)
3. Cc1ccc(O)c(C(CC2CCCC[N+]2(C)C)c2ccsc2)c1 (stereo not shown)
4. Cc1ccc(O)c(C(CC2CCCCN2C)c2ccccc2F)c1 (stereo not shown)
5. Cc1ccc(O)c(C(CC2CCCC[N+]2(C)C)c2ccc(Cl)cc2)c1 (stereo not shown)
6. CN1CCCCC1CC(c1ccccc1O)c1ccccc1O (racemic) [II-3]

[7.47, 7.27, 7.97, 6.68, 7.06, 7.88]

State the recorded pIC50 for every item in the following list.
1. COc1ccc(O)c(C(CC2CCCCN2C)c2ccccc2)c1 (stereo not shown)
2. C[N+]1(C)CCCCC1CC(c1ccccc1)c1cc(F)ccc1O (stereo not shown) [I-10b-1]

1: 6.49; 2: 7.45

====

testedOn: M3 receptor (Homo sapiens, UniProt P20309)
Construct: HT-29 cell model endogenously highly expressing the M3 receptor; endogenous in cells
method: DMR assay, antagonism of acetylcholine in HT-29 cells endogenously expressing the M3 receptor
assayContext: HT-29 cells, DMR, acetylcholine 16 μM, 1 h pretreatment, time point 30 min
So I've got a bunch of compounds here, and I need their pIC50 values.
Numbers only, as −log10 of the molar value.

Dear colleague, please send me the reported pIC50 for CCN1CCCCC1CC(c1ccccc1)c1cc(C)ccc1O (stereo not shown) [II-18] when you can. 6.62

Write down pIC50 measured for item CN1CCCCC1CC(c1ccccc1)c1cc(F)ccc1O (single isomer, unassigned) [II-10a] 7.31

Kindly indicate its recorded pIC50. Item: Cc1ccc(C(CC2CCCC[N+]2(C)C)c2cc(C)ccc2O)cc1 (stereo not shown) [I-15] 7.11

Item C[N+]1(C)CCCCC1CC(c1ccccc1)c1cc(F)ccc1O.[Br-] (stereo not shown) [I-10a-1] : provide pIC50 7.43

Please report pIC50 for the following compound: C[N+]1(C)CCCCC1CC(c1ccccc1O)c1ccccc1O.[Br-] (stereo not shown) [I-3-1-Br] 8.22

Now, please, on to the next compound.
Please supply the value of reported pIC50 for the item C[N+]1(C)CCCCC1CC(c1ccccc1)c1ccccc1O (stereo not shown) [I-2a-2-Br] 7.55

====

testedOn: M1 receptor (Homo sapiens)
Sequence (P11229 1-460): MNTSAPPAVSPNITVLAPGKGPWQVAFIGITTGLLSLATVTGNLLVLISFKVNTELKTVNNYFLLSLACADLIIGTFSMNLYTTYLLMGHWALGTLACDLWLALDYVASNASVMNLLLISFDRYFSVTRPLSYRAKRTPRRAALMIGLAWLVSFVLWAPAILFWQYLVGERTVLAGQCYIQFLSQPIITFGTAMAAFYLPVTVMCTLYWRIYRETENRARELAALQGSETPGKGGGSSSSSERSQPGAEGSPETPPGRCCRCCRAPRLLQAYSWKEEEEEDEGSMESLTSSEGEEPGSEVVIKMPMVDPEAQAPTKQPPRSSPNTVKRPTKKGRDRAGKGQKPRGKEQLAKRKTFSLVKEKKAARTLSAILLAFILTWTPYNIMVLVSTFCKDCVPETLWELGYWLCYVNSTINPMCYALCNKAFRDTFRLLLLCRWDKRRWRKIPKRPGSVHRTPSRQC
method: DMR assay, antagonism of acetylcholine in CHO-K1 cells stably transfecting the M1 receptor
assayContext: CHO-K1-M1 cells, DMR, acetylcholine 1 μM, 1 h pretreatment, time point 5 min
For each entry below, report its pIC50 value.
Answers are plain numbers, as −log10 of the molar value.

Fill in reported pIC50 for this entry: CN1CCCCC1CC(c1ccccc1)c1cc(F)ccc1O (single isomer, unassigned) [II-10b] 7.08

Hello, I would appreciate it if you could give pIC50 for each entry below.
1. Cc1ccc(O)c(C(CC2CCCC[N+]2(C)C)c2ccc(Cl)cc2)c1 (centres unmarked)
2. COc1ccc(O)c(C(CC2CCCCN2C)c2ccccc2)c1 (centres unmarked)
3. C[N+]1(C)CCCCC1CC(c1ccccc1O)c1ccccc1O (centres unmarked) [I-3-I]
4. COc1ccc(O)c(C(CC2CCCC[N+]2(C)C)c2ccccc2)c1 (centres unmarked)

7.10
7.14
7.20
7.00
